The values you see were collected from paper PMC5830761.

Molecular target: human A1 receptors (Homo sapiens, UniProt P30542)
Sequence (P30542 1-326): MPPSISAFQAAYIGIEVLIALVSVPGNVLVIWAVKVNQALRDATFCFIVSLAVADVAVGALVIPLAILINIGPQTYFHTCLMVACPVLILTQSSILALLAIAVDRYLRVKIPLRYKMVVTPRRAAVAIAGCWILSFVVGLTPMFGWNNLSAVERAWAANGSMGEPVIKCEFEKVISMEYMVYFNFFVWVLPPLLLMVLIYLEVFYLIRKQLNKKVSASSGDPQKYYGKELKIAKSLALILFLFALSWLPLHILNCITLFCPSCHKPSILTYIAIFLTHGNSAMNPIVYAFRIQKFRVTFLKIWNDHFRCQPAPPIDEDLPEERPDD
Assay: Radioligand binding to human A1 AR ([3H]CCPA), CHO cell membranes
Conditions: CHO cells expressing human A1AR; radioligand [3H]CCPA; mean ± SEM; read-out: Ki hA1AR
outcomeMeasure: Ki (nM)
I only need the number, in nM, no unit after it.

What Ki value was documented for this compound, "Nc1nc(OCCc2cn(Cc3ccccc3)c3cc(Br)ccc23)nc2c1ncn2[C@@H]1O[C@H](CO)[C@@H](O)[C@H]1O" ?
217
